System: Nuclear hormone receptor DAF-12 (Heterodera glycines), GAL4 fusion
method.description: H. glycines DAF-12 receptor agonists, primary screen, cell-based, luminescence, HEK293, GAL4 fusion, UAS-luciferase (AID 687014);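 further: 0% = DMSO wells and 100% = sodium butyrate wells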
assay.setup: HEK293 GAL4-hgDAF12 UAS-luciferase reporter, agonist luminescence; at 6.8 µM; normalized to butyrate control
Among all 370,000 compounds or so, about 6,800 (1.8%) were called active.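 How the source made its calls: active means activation above a cutoff set at the mean of all screened compounds plus 3 SD (cut at about 10% in these data); inactive means the rest.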 The full list was thinned out, with actives kept by preference.
Could you please pick one outcome from this set? y for active, n for inactive

Observe how each entry below is paired with its result.
compound	class
CC(=O)Nc1ccc(C(=O)CSc2nc3ccc(C)cc3[nH]2)cc1	n
COC(=O)C1=C(C)N(Cc2ccc(F)cc2)C(=S)NC1c1cccc(Cl)c1 (stereo unspecified)	n
O=C1CC(c2ccc3c(c2)OCO3)N=C2N(CC3CC3)C/C(=C/c3ccccc3)N12 (stereo unspecified)	n
C=C(C)C1CC23C(=O)C4(C(=O)c5ccccc5)C[C@@]5(C)CCC(CC2C1(C)C)(C4=O)C35OC (stereo partly specified)	n
Cc1nc(NC(=O)C(C)(C)C)sc1[N+](=O)[O-]	n
CN(C)S(=O)(=O)c1ccc2oc(SCC(=O)Nc3ccccc3F)nc2c1	y
Nn1c(SCC(=O)Nc2cccc3ccccc23)nnc1-c1cc(-c2ccc(F)cc2)n[nH]1	n
CSc1nc2nc3c(c(=O)n2[nH]1)CCC3	n

Which outcome was entered for the compound O=[N+]([O-])c1cc2ccccc2nc1-c1ccccc1 in this test?
n

Which outcome was entered for the compound CCOC(=O)[C@]12CCCC=C1N(Cc1ccc(OC)cc1)C(=O)[C@@H]2CC(=O)NCc1cccs1 in this test?
n

Which outcome was entered for the compound O=C(COc1cccc(-n2cnnn2)c1)NCCC1=CCCCC1 in this test?
n

###

System: Nuclear hormone receptor DAF-12 (Heterodera glycines), GAL4 fusion
method.description: H. glycines DAF-12 receptor agonists, primary screen, cell-based, luminescence, HEK293, GAL4 fusion, UAS-luciferase (AID 687014);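 further: 0% = DMSO wells and 100% = sodium butyrate wells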
assay.setup: HEK293 GAL4-hgDAF12 UAS-luciferase reporter, agonist luminescence; at 6.8 µM; active compounds read high; normalized to butyrate control
The whole screen tested about 370,000 compounds, of which about 6,800 (1.8%) were called active. Only a selection was taken, and actives are over-represented in it overall.
attribute.measured: activation (%)
Field: numeric (%). Do not append units.

Please review the following examples before continuing.
molecule	activation (%)
CC(C)c1ccc(Nc2nnc(SCC(=O)c3nnc(-c4ccccc4)o3)s2)cc1	17.7
N#Cc1ccc(N2Cc3ccccc3/C2=N/C(=O)Nc2ccc(Cl)cc2)cc1	2
Cc1ccccc1C(=O)N[C@H](C(=O)N1CCC[C@H]1C(=O)NCc1ccccc1)C(C)C	-1.35
C=CCNc1cnn(-c2ccc(C)cc2)c(=O)c1Cl	12.7
CC1CCN(C(=O)c2ncn3c2C(=O)N[C@@H](C)C3)CC1	0.1
COc1ccc(/C=C2\CC3(OC(C)=O)CCCN2C3)cc1 (configuration not stated)	-5.68

Endpoint output: activation of COc1ccc(C(=O)/C=C/c2ccc(-c3ccccc3)cc2)cc1CSCC(=O)O . Value?
-3.73

Endpoint output: activation of CCN(C(=O)CSc1ncnc2c1cnn2-c1ccccc1)C1CCS(=O)(=O)C1 (configuration not stated) . Value?
1.12

Endpoint output: activation of COc1ccc(-c2cc(-c3nnc(SCc4ccc([N+](=O)[O-])cc4)n3N)[nH]n2)cc1 . Value?
3.72
